system: MDA-MB-231; assay: kynurenine production, fold change vs DMSO IFNg/TNF control; higher = more kynurenine produced (less inhibition); settings: pre-treatment time: 18 h then 24 h IFNg/TNF
measured endpoint: kynurenine production
Give bare numbers.

Please review the entries below; each comes with its answer.
>>> quantitative_readout("CC12CCC(C1)C(C)(C)C2O (stereo not drawn) [Fenchyl alcohol] (compound dose: 10 uM)")
0.817
>>> quantitative_readout("CC1(C)O[C@H]2CC(=O)OC[C@]23[C@H]2CC[C@@]4(C)[C@H](c5ccoc5)OC(=O)[C@H]5O[C@]54[C@]2(C)C(=O)C[C@@H]13 [Limonin] (compound dose: 10 uM)")
0.86

Using known records, supply kynurenine production for C=C(C)C1CC=C(C)[C@@H](O)C1 (single isomer, unassigned; (-)) [(-)-carveol (mixed)] (compound dose: 10 uM)
1.02

====

Exercise: for every item that follows, state its recorded cell viability.
tested on: MDA-MB-231; test: cell viability relative to vehicle unstimulated control (fraction); higher = more viable cells; settings: pre-treatment time: 18 h then 24 h IFNg/TNF
Answers are plain numbers.

Please review the entries below; each comes with its answer.
>>> quantitative_readout("C=C1C[C@]23C[C@@]1(O)CC[C@H]2[C@@]12C=C[C@H](O)[C@@](C)(C(=O)O1)[C@H]2[C@@H]3C(=O)O [Gibberellic acid] (compound dose: 10 uM)")
0.951
>>> quantitative_readout("C[C@@H]1O[C@@H](O[C@@H]2[C@@H](O)[C@H](O[C@H]3CC[C@]4(C)[C@H]5CC=C6[C@@H]7CC(C)(C)CC[C@]7(C(=O)O[C@@H]7O[C@H](CO)[C@@H](O)[C@H](O)[C@H]7O)CC[C@@]6(C)[C@]5(C)CC[C@H]4C3(C)C)O[C@H](C(=O)O)[C@H]2O)[C@H](O)[C@H](O)[C@H]1O (compound dose: 10 uM)")
0.941
>>> quantitative_readout("C/C1=C\\CC/C(C)=C/C2C(CC/C(C)=C/CC1)C2(C)C (centres undefined) [Casbene] (compound dose: 10 uM)")
1.11

// next item, cell viability requested
Using known records, supply cell viability for C=C1C[C@@]23CC[C@H]4[C@@](C)(CCC[C@@]4(C)C(=O)O[C@@H]4O[C@H](CO)[C@@H](O)[C@H](O)[C@H]4O)[C@@H]2CC[C@]1(O[C@@H]1O[C@H](CO)[C@@H](O)[C@H](O)[C@H]1O[C@@H]1O[C@H](CO)[C@@H](O)[C@H](O)[C@H]1O)C3 [Stevioside] (compound dose: 10 uM)
1.05

====

Exercise: for every item that follows, state its recorded kynurenine production.
test system: MDA-MB-231; assay: kynurenine production, fold change vs DMSO IFNg/TNF control; higher = more kynurenine produced (less inhibition); conditions: pre-treatment time: 18 h then 24 h IFNg/TNF
Answers are plain numbers.

Please review the entries below; each comes with its answer.
>>> quantitative_readout("CN1CCC[C@@H]1CC(=O)C[C@@H]1CCCN1C [Cuscohygrine] (compound dose: 10 uM)")
0.962
>>> quantitative_readout("C=C(C(=O)O)[C@@H]1CC[C@@H](C)[C@@H]2CCC(C)=C[C@@H]21 [Artemisinic acid] (compound dose: 10 uM)")
0.889
>>> quantitative_readout("CC[C@@H](C(=O)[C@@H](C)[C@@H](O)[C@H](C)CCc1ccc(C)c(O)c1C(=O)O)[C@H]1O[C@](CC)([C@H]2CC[C@](O)(CC)[C@H](C)O2)C[C@@H]1C [Lasalocid] (compound dose: 10 uM)")
0.509
>>> quantitative_readout("CC1(C)C2CC=C(C=O)C1C2 (single isomer, unassigned; (-)) [(-)-Myrtenal] (compound dose: 10 uM)")
0.941
>>> quantitative_readout("C[C@H](CC[C@@H](O[C@@H]1O[C@H](CO)[C@@H](O)[C@H](O)[C@H]1O)C(C)(C)O)[C@H]1CC[C@@]2(C)[C@@H]3CC=C4[C@@H](CC[C@H](O)C4(C)C)[C@]3(C)[C@H](O)C[C@]12C [Mogroside I A1] (compound dose: 10 uM)")
0.921

// next item, kynurenine production requested
Determine reported kynurenine production for CC(C)=CCC/C(C)=C/CO [Geraniol] (compound dose: 10 uM) ; test system: MDA-MB-231.
0.829

====

tested on: MDA-MB-231; experiment: kynurenine production, fold change vs DMSO IFNg/TNF control; higher = more kynurenine produced (less inhibition); conditions: pre-treatment time: 18 h then 24 h IFNg/TNF
Exercise: for every item that follows, state its recorded kynurenine production.
One number for each entry.

>>> quantitative_readout("C[C@@H]1CC[C@]2(C(=O)O[C@@H]3O[C@H](CO)[C@@H](O)[C@H](O)[C@H]3O)CC[C@]3(C)C(=CC[C@@H]4[C@@]5(C)CC[C@H](O[C@@H]6OC[C@H](O)[C@H](O)[C@H]6O)C(C)(C)[C@@H]5CC[C@]43C)[C@@H]2[C@]1(C)O [Ziyuglycoside I] (compound dose: 10 uM)")
0.804

Would you be so kind as to report kynurenine production for each listed record?
1. CC1(C)[C@@H](O[C@H]2O[C@H](C(=O)O)[C@@H](O)[C@H](O)[C@H]2O[C@@H]2O[C@H](C(=O)O)[C@@H](O)[C@H](O)[C@H]2O)CC[C@]2(C)[C@H]3C(=O)C=C4[C@@H]5C[C@@](C)(C(=O)O)CC[C@]5(C)CC[C@@]4(C)[C@]3(C)CC[C@@H]12 [Dipotassium glycyrrhizinate] (compound dose: 10 uM)
2. CC1(C)CC[C@]2(C(=O)O)CC[C@]3(C)C(=CC[C@@H]4[C@@]5(C)CC[C@H](O)C(C)(C)[C@@H]5CC[C@]43C)[C@@H]2C1 [Oleanolic Acid] (compound dose: 10 uM)

1. 0.808
2. 0.778

====

tested on: MDA-MB-231; experiment: cell viability relative to vehicle unstimulated control (fraction); higher = more viable cells; settings: pre-treatment time: 18 h then 24 h IFNg/TNF
measured endpoint: cell viability
Answers are plain numbers.

Would you be so kind as to report cell viability for each listed record?
1. COc1ccc([C@H]2OC[C@H]3[C@@H]2CO[C@H]3c2ccc(O[C@@H]3O[C@H](CO)[C@@H](O)[C@H](O)[C@H]3O)c(OC)c2)cc1OC [Phillyrin] (compound dose: 10 uM)
2. C[C@@H]1CC[C@]2(C(=O)O[C@@H]3O[C@H](CO)[C@@H](O)[C@H](O)[C@H]3O)CC[C@]3(C)C(=CC[C@@H]4[C@@]5(C)C[C@@H](O)[C@H](O)C(C)(C)[C@@H]5CC[C@]43C)[C@@H]2[C@]1(C)O [Rosamultin] (compound dose: 10 uM)
3. C[C@@H]1CC[C@H]2[C@@H](C)C(=O)O[C@@H]3O[C@@]4(C)CC[C@@H]1[C@]32O4 [Deoxyartemisinin] (compound dose: 10 uM)
4. CC(C)=CCC/C(C)=C/CC/C(C)=C/CO [Farnesol] (compound dose: 10 uM)
5. C=C[C@@]1(C)CC(=O)[C@]2(O)[C@@]3(C)[C@@H](O)CCC(C)(C)[C@@H]3[C@H](O)[C@H](OC(C)=O)[C@@]2(C)O1 [Forskolin] (compound dose: 10 uM)
6. C[C@@H]1CC[C@]2(C)CC[C@]3(C)C(=CC(=O)C4[C@@]5(C)CC[C@@H](O)[C@](C)(C(=O)O)C5CC[C@]43C)C2[C@H]1C (stereo partly drawn) [11-Keto-beta-boswellic acid] (compound dose: 10 uM)

1: 0.978; 2: 1; 3: 1.28; 4: 0.994; 5: 0.785; 6: 0.949

Would you be so kind as to report cell viability for each listed record?
1. CC(C)=CCC[C@](C)(O)[C@H]1CC[C@]2(C)[C@@H]1[C@H](O)C[C@@H]1[C@@]3(C)CC[C@H](O)C(C)(C)[C@@H]3[C@@H](O[C@@H]3O[C@H](CO)[C@@H](O)[C@H](O)[C@H]3O[C@@H]3OC[C@@H](O)[C@H](O)[C@H]3O)C[C@]12C [Notoginsenoside R2] (compound dose: 10 uM)
2. CC(C)=CCC[C@](C)(O[C@@H]1O[C@H](CO[C@@H]2OC[C@H](O)[C@H](O)[C@H]2O)[C@@H](O)[C@H](O)[C@H]1O)[C@H]1CC[C@]2(C)[C@@H]1[C@H](O)C[C@@H]1[C@@]3(C)CC[C@H](O[C@@H]4O[C@H](CO)[C@@H](O)[C@H](O)[C@H]4O[C@@H]4O[C@H](CO)[C@@H](O)[C@H](O)[C@H]4O)C(C)(C)[C@@H]3CC[C@]12C [Ginsenoside Rb2] (compound dose: 10 uM)
3. C[C@@]12C[C@@]3(O)O[C@@H](O1)[C@]1(COC(=O)c4ccc(O)cc4)[C@@H]3C[C@]12O[C@@H]1O[C@H](CO)[C@@H](O)[C@H](O)[C@H]1O [Oxypaeoniflorin] (compound dose: 10 uM)
4. C[C@H]1[C@H](C)CC[C@]2(C(=O)O)CC[C@]3(C)C(=CC[C@@H]4[C@@]5(C)C[C@@H](O)[C@H](O)[C@@](C)(CO)[C@@H]5CC[C@]43C)[C@H]12 [Asiatic acid] (compound dose: 10 uM)
5. C=C(C)C1CC=C(C)CC1 (stereo not drawn) [(s)-(-)-limonene] (compound dose: 10 uM)
6. C=C(C)[C@@H]1CC[C@]2(C(=O)O)CC[C@]3(C)[C@H](CC[C@@H]4[C@@]5(C)CCC(=O)C(C)(C)[C@@H]5CC[C@]43C)[C@@H]12 [Betulonic acid] (compound dose: 10 uM)
7. CC1(C)[C@@H](O[C@H]2O[C@H](C(=O)O)[C@@H](O)[C@H](O)[C@H]2O[C@@H]2O[C@H](C(=O)O)[C@@H](O)[C@H](O)[C@H]2O)CC[C@]2(C)[C@H]3C(=O)C=C4[C@@H]5C[C@@](C)(C(=O)O)CC[C@]5(C)CC[C@@]4(C)[C@]3(C)CC[C@@H]12 [Glycyrrhizic acid] (compound dose: 10 uM)
8. CC1=CCC(O)(C(C)C)CC1 (centres undefined) [Terpineol] (compound dose: 10 uM)

1: 1.04; 2: 0.968; 3: 1.05; 4: 1.01; 5: 0.944; 6: 0.836; 7: 1.05; 8: 0.969
